- Tested on: RKO
- experiment-summary: Antiproliferative activity against human RKO cells assessed as cell viability incubated for 72 hrs by MTT assay
- Format: functional, cell-based
pIC50: −log10 of the molar value.
# label = t if pIC50 >= 6 else f

- smiles-code: "COc1ccc(N(C)c2nc(/C=C/c3ccccc3)nc3ccccc23)c(OC)c1"
  category-label: "t"
- smiles-code: "COc1ccc(N(C)c2nc(/C=C/c3ccc(OC)c(OC)c3)nc3ccccc23)cc1"
  category-label: "f"
- smiles-code: "COc1ccc(N(C)c2nc(/C=C/c3cccc(F)c3)nc3ccc(F)cc23)cc1"
  category-label: "t"
- smiles-code: "CN(c1ccc(OC(F)(F)F)cc1)c1nc(/C=C/c2ccccc2)nc2ccccc12"
  category-label: "f"
- smiles-code: "CN(c1ccccc1)c1nc(/C=C/c2ccccc2)nc2ccccc12"
  category-label: "f"
- smiles-code: "COc1ccc(N(C)c2nc(/C=C/c3cccc(Cl)c3Cl)nc3ccccc23)cc1"
  category-label: "f"
- smiles-code: "CN(c1ccc2c(c1)OCCO2)c1nc(/C=C/c2ccccc2)nc2ccccc12"
  category-label: "t"
- smiles-code: "COc1ccc(N(C)c2nc(/C=C/c3ccccc3OC)nc3ccccc23)cc1"
  category-label: "f"

Now take the following molecule into account.
Would you say COc1cccc(OC)c1N(C)c1nc(/C=C/c2ccccc2)nc2ccccc12 shows pIC50 at minimum 6?
f

* * *

- experiment-summary: Volume of distribution at steady state in Sprague-Dawley rat at 5 mg/kg, iv measured upto 24 hrs by HPLC-MS analysis
- Assay type: ADME, organism-based
- experimental-context: in vivo, read-out: Vdss
metric-name: Vd

Any idea what its Vd is? The compound is COc1ccc(N(C)c2nc(/C=C/c3cccc(OC)c3)nc3ccccc23)cc1
1.03 L/kg

* * *

- experiment-summary: AUC (0 to t) in Sprague-Dawley rat at 5 mg/kg, iv measured upto 24 hrs by HPLC-MS analysis
- Assay type: ADME, organism-based
- experimental-context: in vivo
metric-name: AUC(0-t) at 24 h (ng·h/mL)
Numbers only, in ng·h/mL.

Quick one: AUC(0-t) at 24 h of COc1ccc(N(C)c2nc(/C=C/c3cccc(OC)c3)nc3ccccc23)cc1 ?
3820

* * *

- Tested on: MCF7
- experiment-summary: Antiproliferative activity against human MCF7 cells assessed as cell viability incubated for 72 hrs by MTT assay
- Format: functional, cell-based
- experimental-context: MCF7, 72 h
pIC50: −log10 of the molar value.
Assign pIC50 to each entry below.

Report pIC50 for every entry below.
1. COc1cccc(OC)c1N(C)c1nc(/C=C/c2ccccc2)nc2ccccc12
2. COc1ccc(N(C)c2nc(/C=C/c3ccc([N+](=O)[O-])cc3)nc3ccccc23)cc1
3. COc1cc(OC)cc(N(C)c2nc(/C=C/c3ccccc3)nc3ccccc23)c1
4. CN(c1ccccc1)c1nc(/C=C/c2ccccc2)nc2ccccc12
5. COc1ccc(N(C)c2nc(/C=C/c3cccc(F)c3)nc3cccnc23)cc1

< 5.00
5.25
< 5.00
< 5.00
5.93

Sample O=c1[nH]cc(F)c(=O)[nH]1 [FLUOROURACIL] — what was its pIC50?
< 5.00

* * *

- experiment-summary: Half life in Sprague-Dawley rat at 5 mg/kg, iv measured upto 24 hrs by HPLC-MS analysis
- Assay type: ADME, organism-based
- experimental-context: in vivo
metric-name: half-life (min)
One number for each entry, in min.

For the molecule shown here, COc1ccc(N(C)c2nc(/C=C/c3cccc(OC)c3)nc3ccccc23)cc1 , give the reported half-life.
30.6
